# system-under-test: Galanin receptor type 3 (Homo sapiens) (UniProt O60755)
# Sequence (O60755 1-299 limits assumed): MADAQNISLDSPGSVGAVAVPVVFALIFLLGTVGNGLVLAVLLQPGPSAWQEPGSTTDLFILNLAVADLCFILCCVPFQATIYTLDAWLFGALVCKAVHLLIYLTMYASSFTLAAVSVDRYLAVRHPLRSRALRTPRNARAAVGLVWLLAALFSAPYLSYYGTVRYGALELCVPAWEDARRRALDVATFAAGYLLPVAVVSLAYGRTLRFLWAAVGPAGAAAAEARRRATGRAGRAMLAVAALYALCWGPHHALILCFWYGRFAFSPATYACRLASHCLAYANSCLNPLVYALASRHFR
# assay-name: GalR3 antagonists in HEK293 cells, primary screen, cell-based, fluorescence readout (AID 651719);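 note: forskolin and galanin both at EC90 stimulate the cells; cAMP rise reported by CNG channel membrane potential dye signal; 0% = forskolin plus galanin with DMSO and 100% = forskolin alone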
# condition-label: HEK293 GalR3-CNG cAMP membrane potential fluorescence; at 3 µM; galR3 body fused to GalR1 C-terminus
Among all 360,000 compounds or so, about 1,600 (0.44%) were called active.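 Rule for the calls: active = inhibition above the screen-wide average plus 3 SD (cut at about 13% in these data); inactive = the rest.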 The list comes from a sample in which actives are over-represented; it also holds close analogues and randomly drawn compounds.
Labels: true (1) for active, false (0) for inactive

compound="COc1ccc(C2Nc3ccccc3C(=O)N2c2ccc(Cl)cc2)cc1Cn1cc([N+](=O)[O-])cn1 (stereo not given)" answer_label="true (1)"
compound=C[C@@H](CN1C2=NC[C@@H](Cc3ccccc3)N2C[C@H]1Cc1ccc(O)cc1)NC(=O)CCC1CCCCC1 answer_label="false (0)"
compound=Cc1ccccc1C(=O)N[C@H](C(=O)N1CCC[C@H]1C(=O)NCc1ccccc1)C(C)C answer_label="false (0)"
compound=O=C1COc2ccc(C(=O)COC(=O)c3ccccc3Cl)cc2N1 answer_label="false (0)"
compound=CC(C)CNc1cccc2c1S(=O)(=O)N[C@H](CC(C)C)CO2 answer_label="false (0)"
compound=COc1ccccc1Cc1c(-c2ccc(F)cc2)nc2ccc(C)cn12 answer_label="false (0)"
compound=O=C(CC(O)(C(F)(F)F)C(F)(F)F)Nc1ccc(Cl)c(Cl)c1 answer_label="true (1)"
compound=COc1ccc(Cl)cc1NC(=O)[C@@H]1CCCN1C(=O)c1cccs1 answer_label="false (0)"
compound=O=C1COc2ccc(C(=O)COC(=O)CCOc3ccccc3)cc2N1 answer_label="false (0)"
compound="COc1ccc(C2Nc3ccccc3C(=O)N2Cc2ccccc2)cc1Cn1nnc2ccccc21 (stereo not given)" answer_label="false (0)"
